Target: CXCR7 (Homo sapiens)
Sequence (P25106 whole entry): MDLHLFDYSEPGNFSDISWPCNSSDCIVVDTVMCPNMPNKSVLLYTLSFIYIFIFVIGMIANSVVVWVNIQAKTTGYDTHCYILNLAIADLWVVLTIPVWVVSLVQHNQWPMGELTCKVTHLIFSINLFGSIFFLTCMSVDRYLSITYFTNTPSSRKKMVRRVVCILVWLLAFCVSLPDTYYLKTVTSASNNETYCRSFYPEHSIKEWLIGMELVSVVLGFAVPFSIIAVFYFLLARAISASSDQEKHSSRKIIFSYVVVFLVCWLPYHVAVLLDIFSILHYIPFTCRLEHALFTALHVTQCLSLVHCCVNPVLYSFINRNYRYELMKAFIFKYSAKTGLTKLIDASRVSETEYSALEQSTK
Experiment: PathHunter CHO-K1 CXCR7 b-arrestin assay (agonistic activity)
Conditions: PathHunter CHO-K1 CXCR7 b-arrestin cell line, 90 minutes at 37° C.
observed property: EC50 (nM)
Write the number in nM without appending the unit.

Exercise: Retrieve EC50 measured for Cc1cncc(C(=O)Nc2cccc(CN3CCC(C(=O)N4CCCC4(C)C)CC3)c2)c1 and print it.
Key: 10

Exercise: Retrieve EC50 measured for CNC(=O)C1CCN(Cc2cccc(NC(=O)c3ccc(Cl)cc3)c2)CC1 and print it.
Key: 3

Exercise: Retrieve EC50 measured for CC(C)C(CO)NC(=O)C1CCN(Cc2cccc(NC(=O)c3cccc(C(F)(F)F)n3)c2)CC1 (racemic) and print it.
Key: 87

Exercise: Retrieve EC50 measured for O=C(Nc1cccc(CN2CCC(C(=O)NC3CCCc4ccccc43)CC2)c1)c1ccc(Cl)cc1 (racemic) and print it.
Key: 40

---

Can you tell me log10 of EC50 for the items I'm about to list?
Target: CXCR7 (Homo sapiens)
Test: PathHunter CHO-K1 CXCR7 b-arrestin assay (agonistic activity)
Conditions: PathHunter CHO-K1 CXCR7 b-arrestin cell line, 90 minutes at 37° C.
In plain terms, each number is the log10 of measured EC50 in nM.

Exercise: Retrieve log10 of EC50 measured for CC(C)(C)CNC(=O)C1CCN(Cc2cccc(NC(=O)c3cccc(C(F)(F)F)n3)c2)CC1 and print it.
Key: 0.78

Exercise: Retrieve log10 of EC50 measured for CCCN(C)C(=O)C1CCN(Cc2cccc(NC(=O)c3cncc(C)c3)c2)CC1 and print it.
Key: 0.78

Exercise: Retrieve log10 of EC50 measured for CC1CCC(NC(=O)C2CCN(Cc3cccc(NC(=O)c4cccc(C(F)(F)F)n4)c3)CC2)CC1 (centres unmarked) and print it.
Key: 0.48

Exercise: Retrieve log10 of EC50 measured for O=C(Nc1ccnc(CN2CCC(C(=O)NC3CCCCC3)CC2)c1)c1ccc(F)cc1 and print it.
Key: 1.75

Exercise: Retrieve log10 of EC50 measured for Cc1cncc(C(=O)Nc2cccc(CN3CCC(C(=O)N4CC[C@@H](F)C4)CC3)c2)c1 and print it.
Key: 2.08

Exercise: Retrieve log10 of EC50 measured for O=C(Nc1cncc(CN2CCC(C(=O)NC3CCCCC3)CC2)c1)c1ccc(Cl)cc1 and print it.
Key: 1.56

Exercise: Retrieve log10 of EC50 measured for O=C(Nc1cccc(CN2CCC(C(=O)NCc3nccs3)CC2)c1)c1ccc(Cl)cc1 and print it.
Key: 1.51

Exercise: Retrieve log10 of EC50 measured for O=C(Nc1cccc(CN2CCC(C(=O)NC3CCC(O)CC3)CC2)c1)c1ccc(Cl)cc1 (centres unmarked) and print it.
Key: 2.38

---

Can you tell me EC50 for the items I'm about to list?
Target: UniProt P25106
Test: PathHunter CHO-K1 CXCR7 b-arrestin assay (agonistic activity)
Conditions: PathHunter CHO-K1 CXCR7 b-arrestin cell line, 90 minutes at 37° C.
Write the number in nM without appending the unit.

Exercise: Retrieve EC50 measured for CCCCCCN(C)C(=O)C1CCN(Cc2cccc(NC(=O)c3cccc(C(F)(F)F)n3)c2)CC1 and print it.
Key: 226

Exercise: Retrieve EC50 measured for O=C(Nc1cccc(CN2CCC(C(=O)NC3CCCC3)CC2)c1)c1ccc(F)c[n+]1[O-] and print it.
Key: 1

Exercise: Retrieve EC50 measured for O=C(Nc1cccc(CN2CCC(C(=O)NCc3ccccc3)CC2)c1)c1ccc(Cl)cc1 and print it.
Key: 45

Exercise: Retrieve EC50 measured for Cc1cncc(C(=O)Nc2cccc(CN3CCC(C(=O)N4CCCCC4)CC3)c2)c1 and print it.
Key: 6

---

Can you tell me EC50 for the items I'm about to list?
Target: CXCR7 (Homo sapiens)
Test: PathHunter CHO-K1 CXCR7 b-arrestin assay (agonistic activity)
Settings: PathHunter CHO-K1 CXCR7 b-arrestin cell line, 90 minutes at 37° C.
Write the number in µM without appending the unit.

Exercise: Tell me its EC50 on CXCR7 (Homo sapiens): Cc1cncc(C(=O)Nc2ccc(F)c(CN3CCC(C(=O)NC4CCCCC4)CC3)c2)c1
Key: 0.011

Exercise: Tell me its EC50 on CXCR7 (Homo sapiens): O=C(Nc1cccc(CN2CCC(C(=O)NC3CCC(F)(F)CC3)CC2)c1)c1ccc(Cl)cc1
Key: 0.002

Exercise: Tell me its EC50 on CXCR7 (Homo sapiens): CCC(CC)NC(=O)C1CCN(Cc2cccc(NC(=O)c3cncc(C)c3)c2)CC1
Key: 0.008

Exercise: Tell me its EC50 on CXCR7 (Homo sapiens): Cc1cc(CNC(=O)C2CCN(Cc3cccc(NC(=O)c4ccc(Cl)cc4)c3)CC2)c(C(F)(F)F)o1
Key: 0.533

Exercise: Tell me its EC50 on CXCR7 (Homo sapiens): O=C(Nc1cccc(CN2CCC(C(=O)N[C@H](CO)C3CCCCC3)CC2)c1)c1cccc(C(F)(F)F)n1
Key: 0.431

Exercise: Tell me its EC50 on CXCR7 (Homo sapiens): Cc1cncc(C(=O)Nc2cccc(CN3CCC(C(=O)NC4CCC(F)(F)CC4)CC3)c2)c1
Key: 0.027

Exercise: Tell me its EC50 on CXCR7 (Homo sapiens): O=C(Nc1cccc(CN2CCC(C(=O)NCc3ccccn3)CC2)c1)c1ccc(Cl)cc1
Key: 0.02

Exercise: Tell me its EC50 on CXCR7 (Homo sapiens): Cc1cncc(C(=O)Nc2cccc(CN3CCC(C(=O)N(C)CC(C)C)CC3)c2)c1
Key: 0.008

Exercise: Tell me its EC50 on CXCR7 (Homo sapiens): COC(C)CNC(=O)C1CCN(Cc2cccc(NC(=O)c3cccc(C(F)(F)F)n3)c2)CC1 (stereo not shown)
Key: 0.006

Exercise: Tell me its EC50 on CXCR7 (Homo sapiens): COCC(C)NC(=O)C1CCN(Cc2cccc(NC(=O)c3cccc(C(F)(F)F)n3)c2)CC1 (stereo not shown)
Key: 0.003

Exercise: Tell me its EC50 on CXCR7 (Homo sapiens): Cc1cncc(C(=O)Nc2cccc(CN3CCC(C(=O)N4CCC(F)(F)C4)CC3)c2)c1
Key: 0.109

Exercise: Tell me its EC50 on CXCR7 (Homo sapiens): O=C(Nc1cccc(CN2CCC(F)(C(=O)NC3CCCCC3)CC2)c1)c1cccc(C(F)(F)F)n1
Key: 0.071

Exercise: Tell me its EC50 on CXCR7 (Homo sapiens): CC(NC(=O)C1CCN(Cc2cccc(NC(=O)c3ccc(Cl)cc3)c2)CC1)C1CCCCC1 (racemic)
Key: 0.134

Exercise: Tell me its EC50 on CXCR7 (Homo sapiens): O=C(Nc1cccc(CN2CCC(C(=O)NCc3cccnc3)CC2)c1)c1ccc(Cl)cc1
Key: 0.162

Exercise: Tell me its EC50 on CXCR7 (Homo sapiens): CCC(C)(C)NC(=O)C1CCCN(Cc2cccc(NC(=O)c3cncc(C)c3)c2)CC1 (racemic)
Key: 0.068

Exercise: Tell me its EC50 on CXCR7 (Homo sapiens): CC(C)(C)NC(=O)C1CCN(Cc2cc(NC(=O)Cc3ccccc3Cl)cs2)CC1
Key: 0.028

Exercise: Tell me its EC50 on CXCR7 (Homo sapiens): O=C(Nc1cncc(CN2CCC(C(=O)NC3CCCCC3)CC2)c1)c1ccc(F)cc1
Key: 0.057

Exercise: Tell me its EC50 on CXCR7 (Homo sapiens): O=C(Nc1cccc(CN2CCC(C(=O)NC3CCc4ccccc43)CC2)c1)c1ccc(Cl)cc1 (racemic)
Key: 0.021

Exercise: Tell me its EC50 on CXCR7 (Homo sapiens): COc1ccccc1CNC(=O)C1CCN(Cc2cccc(NC(=O)c3ccc(Cl)cc3)c2)CC1
Key: 0.015

Exercise: Tell me its EC50 on CXCR7 (Homo sapiens): CC(C)(C)NC(=O)C1CCN(Cc2cc(NC(=O)c3cccc(C(F)(F)F)n3)ccc2F)CC1
Key: 0.002

Exercise: Tell me its EC50 on CXCR7 (Homo sapiens): COc1cncc(C(=O)Nc2cccc(CN3CCC(C(=O)NC4CCCC4)CC3)c2)c1
Key: 0.009

Exercise: Tell me its EC50 on CXCR7 (Homo sapiens): Cc1cncc(C(=O)Nc2cccc(CN3CCC(C(=O)NC4CCCC4)CC3)c2)c1
Key: 0.005

Exercise: Tell me its EC50 on CXCR7 (Homo sapiens): CNC(=O)C1CCN(Cc2cccc(NC(=O)c3cccc(C(F)(F)F)n3)c2)CC1
Key: 0.004

Exercise: Tell me its EC50 on CXCR7 (Homo sapiens): CC(C)(C)NC(=O)C1CCCN(Cc2cccc(NC(=O)c3cccc(C(F)(F)F)n3)c2)CC1 (racemic)
Key: 0.01

Exercise: Tell me its EC50 on CXCR7 (Homo sapiens): CC(C)(NC(=O)C1CCN(Cc2cccc(NC(=O)c3ccc(Cl)cc3)c2)CC1)c1ccccc1
Key: 0.219

Exercise: Tell me its EC50 on CXCR7 (Homo sapiens): CC(C)CNC(=O)C1CCN(Cc2cccc(NC(=O)c3cccc(C(F)(F)F)n3)c2)CC1
Key: 0.002

Exercise: Tell me its EC50 on CXCR7 (Homo sapiens): O=C(Nc1cccc(CN2CCC(C(=O)NCc3ccncc3)CC2)c1)c1ccc(Cl)cc1
Key: 0.218

Exercise: Tell me its EC50 on CXCR7 (Homo sapiens): O=C(Nc1cccc(CN2CCC(C(=O)NC3CCCCC3)CC2)c1)c1cccs1
Key: 0.007

Exercise: Tell me its EC50 on CXCR7 (Homo sapiens): O=C(Nc1cc(CN2CCC(C(=O)NC3CCCCC3)CC2)ccn1)c1ccc(F)cc1
Key: 0.024

Exercise: Tell me its EC50 on CXCR7 (Homo sapiens): COc1cccc(CNC(=O)C2CCN(Cc3cccc(NC(=O)c4ccc(Cl)cc4)c3)CC2)c1
Key: 0.394

Exercise: Tell me its EC50 on CXCR7 (Homo sapiens): O=C(Nc1ccc(F)c(CN2CCC(C(=O)NC3CCCCC3)CC2)c1)c1cccc(C(F)(F)F)n1
Key: 0.003

Entry source: patent US20130345199A1
